Data provenance is patent US5645995A.

# tested system: mutant human progesterone receptor (valine to leucine at amino acid 660) (Homo sapiens, UniProt P06401, V660L)
# Construct: expressed in transfected cells; host or cells: COS cells (no endogenous progesterone receptor), pcDNAI/Amp vector
# Sequence (P06401 1-933 V660L): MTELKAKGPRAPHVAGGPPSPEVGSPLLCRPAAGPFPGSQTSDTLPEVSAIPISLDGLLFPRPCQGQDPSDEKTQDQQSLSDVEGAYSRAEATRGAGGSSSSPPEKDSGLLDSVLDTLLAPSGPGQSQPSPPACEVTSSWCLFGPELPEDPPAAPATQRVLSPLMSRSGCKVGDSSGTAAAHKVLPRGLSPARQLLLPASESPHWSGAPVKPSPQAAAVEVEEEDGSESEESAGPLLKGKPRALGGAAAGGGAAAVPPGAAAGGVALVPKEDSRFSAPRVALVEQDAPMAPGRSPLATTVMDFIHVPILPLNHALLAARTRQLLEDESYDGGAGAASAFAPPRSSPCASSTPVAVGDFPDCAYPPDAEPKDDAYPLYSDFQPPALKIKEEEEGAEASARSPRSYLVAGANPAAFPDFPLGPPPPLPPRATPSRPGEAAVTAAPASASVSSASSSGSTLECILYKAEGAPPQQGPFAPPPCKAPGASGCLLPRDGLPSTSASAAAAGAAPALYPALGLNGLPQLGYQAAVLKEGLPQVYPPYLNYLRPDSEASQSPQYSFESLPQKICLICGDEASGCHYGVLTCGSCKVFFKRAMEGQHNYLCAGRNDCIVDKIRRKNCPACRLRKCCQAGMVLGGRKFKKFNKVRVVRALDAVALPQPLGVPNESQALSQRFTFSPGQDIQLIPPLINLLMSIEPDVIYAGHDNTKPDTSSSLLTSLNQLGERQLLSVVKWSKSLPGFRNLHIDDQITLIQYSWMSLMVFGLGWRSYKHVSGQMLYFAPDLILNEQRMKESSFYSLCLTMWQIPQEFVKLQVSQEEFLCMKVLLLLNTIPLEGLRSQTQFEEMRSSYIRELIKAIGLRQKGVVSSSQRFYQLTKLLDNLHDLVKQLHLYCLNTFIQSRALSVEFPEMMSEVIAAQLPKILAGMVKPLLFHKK
# assay name: Hormone-binding Whole Cell Assay with Scatchard analysis, COS cells expressing mutant receptor
# settings: COS cells infected with 250 ng receptor DNA, 50-6400 pM [3H]R5020 overnight, Scatchard analysis (FIG. 7B), read-out: dissociation constant
metric: Kd (nM)
State the answer as a number, implicitly in nM.

Briefly, Kd measured for CCC(=O)[C@@]1(C)CC[C@H]2[C@@H]3CCC4=CC(=O)CCC4=C3CC[C@@]21C [R5020] : 0.25
